- experiment_description: Selectivity ratio of IC50 for ROCK1 (unknown origin) to IC50 for ROCK2 (unknown origin)
measurement_name: Ratio IC50

Before answering, review these 5 worked examples.
> print(dat)
                               smiles.input  measurement
1  N#Cc1ccn(-c2cccc(CN[C@H]3CCC[C@@H](Nc4ccc5[nH]ncc5c4)C3)c2)c(=O)c1            4
2  Cc1ccc(=O)n(-c2cccc(CN[C@H]3CCC[C@H](Nc4ccc5[nH]ncc5c4)C3)c2)c1            4
3  Cc1ccn(-c2cccc(CN[C@H]3CCC[C@H](Nc4ccc5[nH]ncc5c4)C3)c2)c(=O)c1            7
4  O=c1ccccn1-c1cccc(CN[C@H]2CCC[C@H](Nc3ccc4[nH]ncc4c3)C2)c1            4
5  O=c1ccccn1-c1cccc(CN[C@H]2CCC[C@@H](Nc3ccc4[nH]ncc4c3)C2)c1            9

I: CCc1ccn(-c2cccc(CN[C@H]3CCC[C@H](Nc4ccc5[nH]ncc5c4)C3)c2)c(=O)c1C
II: Cc1ccc(=O)n(-c2cccc(CN[C@H]3CCC[C@@H](Nc4ccc5[nH]ncc5c4)C3)c2)c1
// query Field: lower recorded Ratio IC50 (choose I or II ) Your choice should be expressed through its label.
// result II
(II: 1, I: 16)

These data points were gathered from ChEMBL document CHEMBL5390280.
